Value source: patent US20240325562A1

Recorded Kd by entry
# System Under Test: T1, full-length rat PDGFRB on cells (rat, UniProt Q05030 32-1097)
# T1 chain: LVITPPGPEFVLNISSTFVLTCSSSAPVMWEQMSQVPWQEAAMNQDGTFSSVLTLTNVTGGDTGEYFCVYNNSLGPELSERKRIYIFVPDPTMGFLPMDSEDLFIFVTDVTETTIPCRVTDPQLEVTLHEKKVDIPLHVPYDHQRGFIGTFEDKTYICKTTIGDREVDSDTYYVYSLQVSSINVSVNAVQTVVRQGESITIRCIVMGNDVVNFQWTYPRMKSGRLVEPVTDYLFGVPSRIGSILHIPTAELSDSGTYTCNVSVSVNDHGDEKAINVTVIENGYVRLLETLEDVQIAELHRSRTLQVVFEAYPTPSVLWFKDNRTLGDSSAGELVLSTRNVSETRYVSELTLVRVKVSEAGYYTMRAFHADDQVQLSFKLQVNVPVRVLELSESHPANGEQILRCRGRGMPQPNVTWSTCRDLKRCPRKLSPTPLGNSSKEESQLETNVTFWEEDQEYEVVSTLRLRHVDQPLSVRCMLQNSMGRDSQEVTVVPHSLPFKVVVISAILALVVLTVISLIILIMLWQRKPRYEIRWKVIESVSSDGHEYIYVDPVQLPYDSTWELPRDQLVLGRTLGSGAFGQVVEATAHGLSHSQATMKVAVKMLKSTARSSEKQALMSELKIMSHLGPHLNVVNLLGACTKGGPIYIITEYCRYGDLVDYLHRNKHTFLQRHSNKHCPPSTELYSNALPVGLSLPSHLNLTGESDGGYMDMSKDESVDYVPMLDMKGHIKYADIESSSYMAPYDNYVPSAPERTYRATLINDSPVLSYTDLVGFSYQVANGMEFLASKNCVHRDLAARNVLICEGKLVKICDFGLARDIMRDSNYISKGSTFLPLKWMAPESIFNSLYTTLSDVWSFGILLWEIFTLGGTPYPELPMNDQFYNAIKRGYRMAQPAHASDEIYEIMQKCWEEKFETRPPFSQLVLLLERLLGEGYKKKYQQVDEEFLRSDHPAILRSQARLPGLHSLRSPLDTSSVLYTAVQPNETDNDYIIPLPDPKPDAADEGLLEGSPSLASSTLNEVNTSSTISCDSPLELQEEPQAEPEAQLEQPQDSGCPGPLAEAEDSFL
# Assay Details: cell binding; SCC-rPDGFRβ cells
Could you give me the number in nM? Just the number is fine.

SP31P (VHH) VHH: EVQLVESGGGLVQAGGSLRLSCAASRGTFGTYIMGWFRQAPGKEREFVAAISWRGANTYYGYSVKGRFTISRDNAKNTMYLQMADLKPEDTADYYCGVHLNGTPYYYASGYRYWGQGTQVTVSS has a reported Kd of 31.8

SP28P (VHH) VHH: EVQLVESGGGLVQAGGSLRLSCAASGSIVSFNGINWYRQAPGKQREWVGGITQGGNTMYADSVRGRFTISRDNTKNTMYLQMNSLKPEDTAVYYCRRPPVASWGQGTQVTVSS has a reported Kd of 0.5

SP36P (VHH) VHH: EVQLVESGGGLVQAGGSLRLSCTPSITTAGTTIMAWFRQAPGNEREFVAAIWGSKTAYGDSMKGRLTISRDNVRDNGQKTVFLQMNNLQLQDTATYYCAASSGGYVHSSTSYEIWGRGTQVTVSS has a reported Kd of 76.6

---
SP26P (VHH, In the competition assay the reporter copy carried IRDye800 on the C-terminal cysteine, which is not in the letters.) VHH: EVQLVESGGGLVQAGGSLRLSCAASGRSFSSSVMGWFRQTPGKEREFVAATRWTAASTHYADSVKGRFTISRDHAENAVFLQMNSLKPEDTAVYYCAAGNYLDTAQYRYNYWGQGTQVTVSS has a reported Kd of 0.3
